Consider the following compounds and their measured Solubility (in TFP) readings.
Assay: Solubility in TFP
Assay type: physicochemical
Conditions: solvent TFP (2,2,3,3-tetrafluoro-1-propanol)
The reply should be a number in %, with the unit left off.

| Compound | Solubility (in TFP) / % |
| --- | --- |
| CN1/C(=C/C=C/C2=[N+](C)c3ccc4ccccc4c3C2(C)CC=CCC2(C)C(/C=C/C=C3/N(C)c4ccc5ccccc5c4C3(C)Cc3ccccc3)=[N+](C)c3ccc4ccccc4c32)C(C)(Cc2ccccc2)c2c1ccc1ccccc21 (centres unmarked) | 5.3 |
| CN1/C(=C/C=C/C2=[N+](C)c3ccc4ccccc4c3C2(C)Cc2ccc(Oc3ccc(CC4(C)C(/C=C/C=C5/N(C)c6ccc7ccccc7c6C5(C)Cc5ccccc5)=[N+](C)c5ccc6ccccc6c54)cc3)cc2)C(C)(Cc2ccccc2)c2c1ccc1ccccc21 (centres unmarked) | 4.8 |
| CCN1/C(=C/C=C/C2=[N+](C)c3ccc4ccccc4c3C2(C)Cc2ccc(Cc3ccc(CC4(C)C(/C=C/C=C5/N(CC)c6ccc7ccccc7c6C5(C)Cc5ccccc5)=[N+](C)c5ccc6ccccc6c54)cc3)cc2)C(C)(Cc2ccccc2)c2c1ccc1ccccc21 (centres unmarked) | 3.6 |

Task: For CCCN1/C(=C/C=C/C2=[N+](CCC(C)C)c3ccc4ccccc4c3C2(C)CC=CCC2(C)C(/C=C/C=C3/N(CCC)c4ccccc4C3(C)C)=[N+](CCC(C)C)c3ccc4ccccc4c32)C(C)(C)c2ccccc21 (centres unmarked) , what is its reported Solubility (in TFP)?
Result: 4.17

Task: What Solubility (in TFP) value was documented for this compound, CN1/C(=C/C=C/C2=[N+](Cc3ccccc3)c3ccc4ccccc4c3C2(C)CC=CCC2(C)C(/C=C/C=C3/N(C)c4ccc5ccccc5c4C3(C)Cc3ccccc3)=[N+](Cc3ccccc3)c3ccc4ccccc4c32)C(C)(Cc2ccccc2)c2c1ccc1ccccc21 (centres unmarked) ?
Result: 5.3

Recorded values, source patent US8759534B2.
